method: in vitro
applied_conditions: rat, microsomes
Exercise: for every item that follows, state its recorded CLint scaled at 1 h, 1 µM.
Numbers only, in mL/min/kg.

{"compound": "O=C1CCC(N2Cc3cc(CNC(=O)Nc4ccc(CCCOC5CNC5)c(Cl)c4)ccc3C2=O)C(=O)N1 (centres unmarked)", "unit_text": "mL/min/kg", "CLint scaled at 1 h, 1 µM": 1.35}

Request: I have this compound here, O=C1CCC(N2Cc3cc(CNC(=O)Nc4ccc(CCCOC5CCNCC5)c(Cl)c4)ccc3C2=O)C(=O)N1 (centres unmarked) , and I need its recorded CLint scaled at 1 h, 1 µM.
Response: 14.6

* * *

Exercise: for every item that follows, state its recorded CLint scaled at 1 h, 1 µM.
method: in vitro
applied_conditions: monkey, microsomes
Numbers only, in mL/min/kg.

{"molecule": "O=C1CCC(N2Cc3cc(CNC(=O)Nc4ccc(CCCOC5CNC5)c(Cl)c4)ccc3C2=O)C(=O)N1 (centres unmarked)", "CLint scaled at 1 h, 1 µM (mL/min/kg)": 0.255}

Then this molecule:
Request: I have this molecule here, O=C1CCC(N2Cc3cc(CNC(=O)Nc4ccc(CCCOC5CCNCC5)c(Cl)c4)ccc3C2=O)C(=O)N1 (centres unmarked) , and I need its recorded CLint scaled at 1 h, 1 µM.
Response: 10.5

The measured values listed here are drawn from patent EP4667463A1.
